// provenance: ChEMBL document CHEMBL4808148

molecular target: Protein deacetylase HDAC6 (Homo sapiens); details: at 10 µM
In all, about 5,600 compounds went through this assay and about 390 (7%) showed an effect of 50% or more. The sample as a whole holds a higher share of strong results than the screen did.
Rule: Satisfied for inhibition not less than 20%, Not satisfied for anything less.

Reference set (3 entries):
| molecule | discrete_label |
| --- | --- |
| CCCSc1ccc2[nH]c(NC(=O)OC)nc2c1 | Satisfied |
| CCC[C@@H]1CC(=O)N([C@@H](CC)C(N)=O)C1 | Satisfied |
| CCn1cnc(C(=O)NC)c1C(=O)NC | Not satisfied |

Q: Item COc1cccc2c1C(=O)c1c(O)c3c(c(O)c1C2=O)C[C@@](O)(/C(CO)=N/NC(=O)CCCCCN1C(=O)C=CC1=O)C[C@@H]3O[C@H]1C[C@H](N)[C@H](O)[C@H](C)O1 with inhibition of 20% or above?
A: Satisfied

Q: Entry to check: CSc1ccccc1OCC(O)CNC(C)C (configuration not stated)
A: Not satisfied

Q: Entry to check: O=C([O-])[C@H]1O[C@H](O)[C@H](O)[C@@H](O)[C@@H]1O.[Na+]
A: Not satisfied

Q: Entry to check: Cc1cc(/C=c2/sc3nc4ccccc4n3c2=O)c(C)n1-c1ccccc1
A: Not satisfied

Q: Entry to check: CC(C)(C)NCC(O)COc1cc(Cl)ccc1Cl (configuration not stated)
A: Not satisfied

Q: Entry to check: Cc1nc2ccc(-n3ncc(C(=O)c4cc5ccccc5[nH]4)c3N)cc2[nH]1
A: Satisfied

Q: Entry to check: O=C(Nc1ccc(C(F)(F)F)cn1)N1CCN(c2ncccc2C(F)(F)F)CC1
A: Not satisfied

Q: Entry to check: C[C@]12CC[C@H]3C(=CCc4cc(O)ccc43)[C@@H]1CCC2=O
A: Satisfied
